TESTED_SYSTEM: recombinant guanylate cyclase reporter cell line (Rattus norvegicus, UniProt P19686+P20595)
Construct: expressed in transfected cells; host or cells: recombinant reporter cell line
Sequence (P19686 whole entry): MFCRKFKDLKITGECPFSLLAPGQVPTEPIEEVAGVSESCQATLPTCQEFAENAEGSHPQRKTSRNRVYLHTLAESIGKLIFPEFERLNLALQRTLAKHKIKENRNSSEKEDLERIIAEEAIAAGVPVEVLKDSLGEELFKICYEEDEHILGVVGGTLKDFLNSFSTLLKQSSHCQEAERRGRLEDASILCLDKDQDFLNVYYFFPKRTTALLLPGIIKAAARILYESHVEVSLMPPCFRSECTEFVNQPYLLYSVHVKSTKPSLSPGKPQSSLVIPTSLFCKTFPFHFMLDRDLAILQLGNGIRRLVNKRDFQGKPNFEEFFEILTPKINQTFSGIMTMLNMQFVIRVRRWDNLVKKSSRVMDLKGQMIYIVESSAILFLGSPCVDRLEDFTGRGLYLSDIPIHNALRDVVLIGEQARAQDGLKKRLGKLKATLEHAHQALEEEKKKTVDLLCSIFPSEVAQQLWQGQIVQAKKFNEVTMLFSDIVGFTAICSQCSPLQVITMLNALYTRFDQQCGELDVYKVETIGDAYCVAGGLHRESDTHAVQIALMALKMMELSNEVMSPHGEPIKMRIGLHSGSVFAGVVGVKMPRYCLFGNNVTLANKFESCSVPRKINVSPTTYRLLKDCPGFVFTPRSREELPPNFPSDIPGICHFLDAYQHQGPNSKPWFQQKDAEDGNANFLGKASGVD
Sequence (P20595 whole entry): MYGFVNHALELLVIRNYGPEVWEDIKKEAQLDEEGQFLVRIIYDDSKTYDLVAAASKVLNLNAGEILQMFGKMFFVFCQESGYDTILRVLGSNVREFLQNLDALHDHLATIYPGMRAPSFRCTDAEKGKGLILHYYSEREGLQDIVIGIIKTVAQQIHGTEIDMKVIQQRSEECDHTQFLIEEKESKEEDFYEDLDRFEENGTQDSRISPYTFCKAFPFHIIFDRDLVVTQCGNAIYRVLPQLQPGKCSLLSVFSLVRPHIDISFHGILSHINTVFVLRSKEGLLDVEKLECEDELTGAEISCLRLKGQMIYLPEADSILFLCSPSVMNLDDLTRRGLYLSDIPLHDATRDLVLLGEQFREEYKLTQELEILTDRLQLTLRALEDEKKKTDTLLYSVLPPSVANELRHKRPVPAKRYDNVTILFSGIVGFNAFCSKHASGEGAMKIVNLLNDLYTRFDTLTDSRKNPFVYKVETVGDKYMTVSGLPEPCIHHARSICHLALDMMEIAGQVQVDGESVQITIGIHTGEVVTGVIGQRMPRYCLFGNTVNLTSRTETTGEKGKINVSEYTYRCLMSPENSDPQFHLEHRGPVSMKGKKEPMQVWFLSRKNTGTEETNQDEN
TEST_DETAILS: Effect on a recombinant guanylate cyclase reporter cell line
Type: cell-based
STUDY_CONDITIONS: MEC = minimum effective concentration; in some cases mean values for individual determinations
Method: B-2. Effect on a Recombinant Guanylate Cyclase Reporter Cell Line The cellular effect of the inventive compounds is determined using a recombinant guanylate cyclase reporter cell line, as described in F. Wunder et al., Anal. Biochem. 339, 104-112 (2005). Representative MEC values (MEC=minimum effective concentration) for the inventive compounds are shown in the table below (in some cases as mean values for individual determinations): […]
VALUE_KIND: MEC (µM)
One number for each entry, in µM.

Some entries whose results are on file:
INSERT INTO results (compound, test_value) VALUES
  ('CCN(CC)CCNC(=O)CC(C)n1cc(-c2c(C)nc3c(OCc4c(F)cccc4F)cc(C)cn23)cn1 (racemic)', 1.0),
  ('Cc1nn(C)cc1-c1c(C)nc2c(OCc3c(F)cccc3F)cccn12', 1.0);

// switching to the query compound
Record request: MEC value, item "Cc1cc(OCc2c(F)cccc2F)c2nc(C)c(-c3nc[nH]n3)n2c1"
1.0

###

TESTED_SYSTEM: recombinant guanylate cyclase reporter cell line (Rattus norvegicus, UniProt P19686+P20595)
Construct: expressed in transfected cells; host or cells: recombinant reporter cell line
TEST_DETAILS: Effect on a recombinant guanylate cyclase reporter cell line
Assay type: cell-based
STUDY_CONDITIONS: MEC = minimum effective concentration; in some cases mean values for individual determinations
Counter-ions that a name gives are not always drawn.
Lab note: anything with MEC below 0.3 µM is marked rule met; values at 0.3 µM or higher are marked rule not met.

Here's what some known entries look like.
INSERT INTO measurements (compound, qualitative_label) VALUES
  ('Cc1nc2c(OCc3c(F)cccc3F)cccn2c1-c1nc(N)n[nH]1', 'rule not met'),
  ('Cc1nc2c(OCc3c(F)cccc3F)cccn2c1-c1ccc2c(c1)OCCO2', 'rule not met'),
  ('Cc1ccc(-c2c(C)nc3c(OCc4c(F)cccc4F)cc(C)cn23)cc1', 'rule not met'),
  ('Cc1cc(OCc2c(F)cccc2F)c2nc(C)c(-c3cccnc3)n2c1', 'rule met'),
  ('Cc1nc2c(OCc3c(F)cccc3F)cccn2c1-c1cn[nH]c1', 'rule met');

Would you kindly verify if MEC of "CCNc1nnc(-c2c(C)nc3c(OCc4c(F)cccc4F)cccn23)o1" is strictly less than 0.3 µM?
rule not met

Moving on to "Cc1cc(OCc2c(F)cccc2F)c2nc(C)c(-c3cnn(CC(C)(C)N)c3)n2c1"
rule met

Another compound to look at: "Cc1nc(C)n(Cc2nnc(-c3c(C)nc4c(OCC5CCCCC5)cccn34)o2)n1"
rule not met

Similarly, "C=Cc1ccc(-c2c(C)nc3c(OCc4c(F)cccc4F)cccn23)cc1" ?
rule not met

Quick one: "Cc1cc(OCc2ncccc2F)c2nc(C)c(-c3cnn(CC(C)(C)N)c3)n2c1"
rule not met

Another: CCCCc1coc(-c2c(C)nc3c(OCc4c(F)cccc4F)cc(Cl)cn23)n1 [Example 61, trifluoroacetate]
rule not met

###

Task for the reader: assign each of the following molecules its reported MEC.
TESTED_SYSTEM: recombinant guanylate cyclase reporter cell line (Rattus norvegicus, UniProt P19686+P20595)
Construct: expressed in transfected cells; host or cells: recombinant reporter cell line
TEST_DETAILS: Effect on a recombinant guanylate cyclase reporter cell line
Format: cell-based
STUDY_CONDITIONS: MEC = minimum effective concentration; in some cases mean values for individual determinations
One number for each entry, in µM.

Items follow; give MEC for each.
1. Cc1nc2c(OCc3c(F)cccc3F)cccn2c1-c1ccc(C(=O)NC2CC2)cc1
2. Cc1nc2c(OCc3c(F)cccc3F)cccn2c1-c1cnn(C(C)C)c1
3. Cc1cc(OCc2c(F)cccc2F)c2nc(C)c(-c3cnn(CC(=O)O)c3)n2c1
4. Cc1cc(OCc2c(F)cccc2F)c2nc(C)c(-c3cnn(CCN4CCS(=O)(=O)CC4)c3)n2c1
5. Cc1nc2c(OCc3c(F)cccc3F)cccn2c1-c1cnn(-c2cncc(F)c2)c1
6. Cc1nc2c(OCc3c(F)cccc3F)cccn2c1-c1cnn(CCN2CCOCC2)c1
7. Cc1nc2c(OCc3c(F)cccc3F)cccn2c1-c1ccc(CN(C)C)cc1
8. Cc1cc(OCc2c(F)cccc2F)c2nc(C)c(-c3cnn(C(C)CC(=O)O)c3)n2c1 (racemic)

1. 0.3
2. 0.3
3. 0.3
4. 0.1
5. 3.0
6. 0.1
7. 1.0
8. 1.0
